- subject-of-test: Hyper-IL-6 (sIL-6R/IL-6 fusion) (UniProt P08887 20-323+P05231:30-212, internal_change)
- test: filter binding
Exam item: assign t to entries whose Kd is below 200 nM and f to entries at or above 200 nM. Note that a value of exactly 200 nM receives f.

{"binder": "GGGTGGGAGGGTGGGT (structured_DNA) [AID-1-T8A]", "group-label": "f"}
{"binder": "GTGGTGGGTGGGTGGGT (structured_DNA) [T30175]", "group-label": "f"}
{"binder": "GGGUGGGUGGGUGGGU (structured_RNA) [rAID-1]", "group-label": "f"}
{"binder": "GGGTGGGTGGGTGGGT (structured_DNA) [AID-1 (T30923)]", "group-label": "f"}
{"binder": "GGGAGGGTGGGTGGGT (structured_DNA) [AID-1-T4A]", "group-label": "f"}

Req: Report whether reported Kd is lower than 200 nM (strictly) for GGGTGGGTGGGAGGGT (structured_DNA) [AID-1-T12A]
Resp: f
